Tested on: primary human adrenocortical carcinoma cultures
Experiment: Cortisol production in primary adrenocortical carcinoma cultures
Format: cell-based
Details: ACC no. 3, ACTH (85 μM) stimulated condition, 3 days; read-out: IC50 inhibition of cortisol production
Text: To obtain primary cultures, adrenal specimens (adrenocortical adenomas, adrenal hyperplasias and adrenocortical carcinomas) were collected after adrenalectomy at the department of Surgery, Erasmus University Medical Center, Rotterdam, the Netherlands, between April 2016 and May 2018. […] Cell viability and cell amount were counted by trypan blue exclusion. […]
Attribute Measured: pIC50
On this scale, pIC50 is minus log10 of a concentration expressed in M (mol/L).

Prompt line: Quick one: pIC50 for CC(=O)N1CCN(c2ccc(OC[C@@H]3CO[C@@](Cn4ccnc4)(c4ccc(Cl)cc4Cl)O3)cc2)CC1 (relative stereo) ?
Response line: 7.49

---

Tested on: cortisol-producing adrenal adenoma cultures
Assay: Cortisol production in primary cortisol-producing adrenal adenoma cultures
Type: cell-based, human
Details: Homo sapiens, 72 h, CPA no. 3, basal condition, 3 days; read-out: IC50 inhibition of cortisol production
Attribute Measured: IC50 (nM)
Form entry: value (nM) — number only.

Prompt line: Quick one: IC50 for CC(=O)N1CCN(c2ccc(OCC3COC(Cn4ccnc4)(c4ccc(Cl)cc4Cl)O3)cc2)CC1 (racemic) [racemic ketoconazole, Ketoconazole] ?
Response line: 138
